biological target: Casein kinase II subunit alpha (Homo sapiens, UniProt P68400); assay: Inhibition of N-terminal GST-fusion protein tagged full length human CK2alpha1 (1 to 391 residues) expressed in baculovirus expression system co-expressing human His-tagged CK2beta using CK2tide as substrate incubated for 1 hrs in presence of ATP by off-chip mobility shift assay
Sequence (P68400 whole entry, the tested form may be a part): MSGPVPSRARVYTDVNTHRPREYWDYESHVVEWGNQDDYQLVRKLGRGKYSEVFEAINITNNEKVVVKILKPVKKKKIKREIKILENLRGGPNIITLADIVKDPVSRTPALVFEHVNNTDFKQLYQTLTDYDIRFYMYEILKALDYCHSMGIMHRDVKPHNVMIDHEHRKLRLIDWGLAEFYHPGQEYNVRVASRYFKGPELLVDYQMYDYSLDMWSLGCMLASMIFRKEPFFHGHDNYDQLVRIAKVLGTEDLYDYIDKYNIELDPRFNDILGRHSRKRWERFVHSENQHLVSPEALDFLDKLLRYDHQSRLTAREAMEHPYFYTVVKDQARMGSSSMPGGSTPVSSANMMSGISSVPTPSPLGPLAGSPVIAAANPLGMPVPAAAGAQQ
IC50 overview
Quick reminder: number only, in µM, skip the unit.

1. Cc1ccc(-n2c(=O)[nH]c3c(C(N)=O)nc(-c4cccc(C(=O)O)c4)nc32)cc1
0.62
2. NC(=O)c1nc(CCC(=O)O)nc2c1[nH]c(=O)n2-c1ccccc1
15
3. COc1ccc(-n2c(=O)[nH]c3c(C(N)=O)nc(-c4cccc(C(=O)O)c4)nc32)cc1
2.6

Form: Entry = "CN(C)c1ccc(-n2c(=O)[nH]c3c(C(N)=O)nc(-c4ccc(C(=O)O)cc4)nc32)cc1" | System = Casein kinase II subunit alpha (Homo sapiens, UniProt P68400) | IC50 = ____
4.3

Record lookup: for Casein kinase II subunit alpha (Homo sapiens, UniProt P68400), what IC50 belongs to "NC(=O)c1nc(-c2cccc(C(=O)O)c2)nc2c1[nH]c(=O)n2-c1ccc([N+](=O)[O-])cc1" ?
0.38

State its IC50 on Casein kinase II subunit alpha (Homo sapiens, UniProt P68400): "COc1cccc(-n2c(=O)[nH]c3c(C(N)=O)nc(-c4ccc(C(=O)O)cc4)nc32)c1"
18

Origin of the recorded values: ChEMBL document CHEMBL5385963
